Ref: paper PMC6468747

- assay_explanation: Plasma pharmacokinetics after single IV and PO dosing
- Type: in vivo, female CD1 mice
- condition_set: female, CD-1, mouse; IV, 2 mg/kg, plasma; read-out: AUC(0-inf)
quantity_measured: AUC(0-inf) (ng·h/mL)
Write the number in ng·h/mL without appending the unit.

Record summary for CC1=C(/C=C/C(C)=C/C=C/C(C)=C/C(=O)Nc2ccc(F)cc2)C(C)(C)CCC1n1ccnc1 (racemic) [VNLG-152R] : reported AUC(0-inf) = 1130

====

- assay_explanation: Plasma pharmacokinetics after single IV and PO dosing
- Assay type: in vivo, female CD1 mice
- condition_set: female, CD-1, mouse; IV, 2 mg/kg, plasma
quantity_measured: half-life
Could you kindly put the unit after your number?

Record summary for CC1=C(/C=C/C(C)=C/C=C/C(C)=C/C(=O)Nc2ccc(F)cc2)C(C)(C)CCC1n1ccnc1 (racemic) [VNLG-152R] : reported half-life = 1.92 h

====

- assay_explanation: Plasma pharmacokinetics after single IV and PO dosing
- Type: in vivo, female CD1 mice
- condition_set: female, CD-1, mouse, plasma; PO 20 mg/kg vs IV 2 mg/kg; read-out: F (%) oral bioavailability
quantity_measured: bioavailability (%)
Write the number in % without appending the unit.

Record summary for CC1=C(/C=C/C(C)=C/C=C/C(C)=C/C(=O)Nc2ccc(F)cc2)C(C)(C)CCC1n1ccnc1 (racemic) [VNLG-152R] : reported bioavailability = 121

====

- assay_explanation: 14-day oral toxicity / MTD study
- Design: species or system female athymic nude mice
- condition_set: female, athymic nude, mouse, in vivo; oral, 14 days, estimated; read-out: maximum tolerated dose (MTD)
- Description: Three different doses, i.e., 10, 25, and 50 mg/kg/day (formulated in 40% β-cyclodextrin in saline) of each compound were administered daily by oral gavage for 14 days. Each group consisted of 3 mice. […] Changes in body weight were scored on a scale of 0–4 as follows: (1) Weight loss: (10 g = 4, 7–9 g = 3, 4–6 g = 2, 1–3 g = 1; severe = 3, moderate = 2, slight = 1, none = 0).
quantity_measured: MTD at 14 days

Record summary for CC1=C(/C=C/C(C)=C/C=C/C(C)=C/C(=O)Nc2ccc(F)cc2)C(C)(C)CCC1n1ccnc1 (racemic) [VNLG-152R] : reported MTD at 14 days = > 50 mg/kg

====

- assay_explanation: Plasma pharmacokinetics after single IV and PO dosing
- Assay type: in vivo, female CD1 mice
- condition_set: female, CD-1, mouse; PO, 20 mg/kg, plasma; read-out: AUC(0-inf)
quantity_measured: AUC(0-inf) (ng·h/mL)
Write the number in ng·h/mL without appending the unit.

Record summary for CC1=C(/C=C/C(C)=C/C=C/C(C)=C/C(=O)Nc2ccc(F)cc2)C(C)(C)CCC1n1ccnc1 (racemic) [VNLG-152R] : reported AUC(0-inf) = 13700
